Hey, just so you know, these numbers are from paper PMC9482650.

experimental_target: T1, HTRA4, P83105
T1 sequence (P83105 378-476, limits assumed, looked up): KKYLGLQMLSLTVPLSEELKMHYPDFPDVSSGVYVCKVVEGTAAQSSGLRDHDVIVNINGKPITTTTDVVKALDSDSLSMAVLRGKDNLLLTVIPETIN
method_notes: holdup assay
Set-up: key: below the threshold = too weak to quantify, mostly under pKd 3.1 to 4
assay_setup: plain residues with an end cap or a label only (N-terminal biotin on a linker: ado-ado)
measured_attribute: pKd

Check out these entries, answers already filled in.
# binder, pKd
rows = [
    ("RQKEVRESKC [SCN8A, Q9UQD0]", "below the threshold"),
    ("ELSATVTTDC [TRIP6, Q15654]", "below the threshold"),
    ("EPQYQPGENL [SRC, P12931]", 3.9),
    ("ARSAAASNYV [CLDN4, O14493]", 3.98),
    ("IDESKKEWLI [CNTNAP2, Q9UHC6]", "below the threshold"),
    ("QKAPTKEFYA [SDC2, P34741]", "below the threshold"),
    ("SRSVVESDEL [MYPN, Q86TC9]", "below the threshold"),
    ("VKRNSKETVV [MARCHF3, Q86UD3]", "below the threshold"),
]

Quick one: give me pKd for each item below, same order please.
1. STKRKLASAV [NCF1, P14598]
2. NTANRRTTPV [CACNG2, Q9Y698]

Result string:
below the threshold
below the threshold
